# measurement.protocol: 384-well plate pilot, post-Golgi transport modulator project, inhibition of yeast transport mutant growth (AID 636); also: test concentration not given here
# condition.info: absorbance 615 nm, about 18 h, active compounds read high
endpoint.label: inhibition (%)
The answer is to be given in %; state only the numeric part.

Give the measured inhibition of `CCc1nnc(SCc2cn3c(C)cc(C)nc3n2)n1N` . -1.89

And then `Cn1c(CN2CCOCC2)nnc1SCC(=O)NCCc1ccccc1` , what is it? -2.08

And then `Cc1ccc2cc(CN(CCN3CCCC3)C(=O)Nc3ccc(F)cc3)c(=O)[nH]c2c1C` , what is it? 0.52

And then `O=C1c2ccccc2C(=O)N1CCCn1nnc(-c2ccc(N3CCOCC3)cc2)n1` , what is it? -4.53

And then `Brc1c(NC2=NCCN2)ccc2nccnc12` , what is it? -0.39

And then `Cc1ccc2nc(-c3ccccn3)cc(C(=O)N3CCN(c4ncccn4)CC3)c2c1` , what is it? -2.7

And then `CCOC(=O)c1sc(NC(=O)COC(=O)Cn2cnc3ccccc32)c(C(=O)OCC)c1C` , what is it? -0.26

And then `COc1cc(S(=O)(=O)N(C)C)ccc1F` , what is it? -6.67

And then `Cc1c(Cl)cccc1Nc1ccccc1C(=O)O` , what is it? -1.17

And then `CCCCn1nnnc1NCc1cccs1` , what is it? -6.49

And then `Cc1[nH]c(C(=O)N2CCCCC2)c(C)c1C(=O)NC1CCCCC1` , what is it? 1.43

And then `CCC(=O)N1CCc2cc(S(=O)(=O)CCC(=O)Nc3nc(C)cs3)ccc21` , what is it? -4.8

And then CCC1CCCCN1S(=O)(=O)c1ccc(C(=O)Nc2nnc(-c3ccccc3Cl)o2)cc1 (centres undefined) , what is it? -0.13

And then `O=C(O)CCc1ccc(-c2cccs2)n1NC(=O)c1ccco1` , what is it? 0.39

And then `CC(=O)Nc1cccc(NC(=O)CSc2nnnn2C)c1` , what is it? -5.39

And then `O=C(Cc1c[nH]c2ccccc12)N1CCc2ccccc21` , what is it? -2.99

And then `COc1ccc2cnn(-c3ccccc3C)c(=O)c2c1OC` , what is it? -3.24

And then `O=c1c2[nH]c3cccc(Cl)c3c2ncn1CCN1CCCCC1` , what is it? -4.13

And then `CN(C(=O)c1ccncc1)C1CC(C)(C)N(O)C(C)(C)C1` , what is it? -7.11

And then `Cc1onc(-c2ccccc2)c1C(=O)N1CCCSC1=Nc1ccccc1` , what is it? -4.55

And then `O=C(Nc1ccon1)c1cccc(S(=O)(=O)N2CCCC2)c1` , what is it? -2.53

And then `CCOc1ccc2[nH]c(O)c(NC(C)=O)c2c1` , what is it? -4.86

And then `O=C(Sc1nnnn1C1CCCCC1)c1cccs1` , what is it? -6.53

And then `CC(=O)Nc1cccc(NC(=O)CSc2nnnn2C(C)C)c1` , what is it? -8.03
